- System: SKOV3 (Ovarian adenocarcinoma)
- testMethodNotes: In vitro cytotoxicity, microculture tetrazolium (MTT) assay, SKOV3
- Type: cell-based, Human
- assaySetup: Homo sapiens, SK-OV-3; SKOV3 ovarian adenocarcinoma; 48 h with compound, further 48 h, MTT; Table 1
Counter-ions that a name gives are not always drawn.
Entries and their measured pIC50 follow.
The value called pIC50 is obtained by taking minus log10 of the concentration in mol/L.

COC(=O)[C@@H](N)COC1OC(C(C)=O)CC2=C1C(=O)c1ccccc1C2=O (mixture of isomers) [BCH1654, hydrochloride]: 6.15
COC(=O)[C@H](CC(C)C)NC(=O)[C@@H](N)CO[C@H]1O[C@H](C(C)=O)CC2=C1C(=O)c1ccccc1C2=O [BCH2000, hydrochloride]: 7.02
CC(=O)[C@@H]1CC2=C(C(=O)c3ccccc3C2=O)[C@@H](O[C@@H]2O[C@@H](C)[C@@H](O)[C@@H](NC(=O)C(F)(F)F)C2I)O1 (stereo partly shown) [BCH2023]: 6.14
CC(=O)CC1CC2=C(C(=O)c3cccc(O)c3C2=O)C(O[C@H]2C[C@H](NC(=O)C(F)(F)F)[C@H](O)[C@H](C)O2)O1 (mixture of isomers) [BCH2098]: 5.10

Next item in the queue.
Asked: Can you look up pIC50 on SKOV3 (Ovarian adenocarcinoma) for CC(C)OC(=O)[C@H]1CC2=C(C(=O)c3ccccc3C2=O)[C@H](O[C@H]2C[C@H](NC(=O)C(F)(F)F)[C@H](O)[C@H](C)O2)O1 [BCH2121] ?
Given back: 6.68

====

- Test system: SKOV3 (Ovarian adenocarcinoma)
- testMethodNotes: In vitro cytotoxicity, microculture tetrazolium (MTT) assay, SKOV3
- Format: cell-based, Human
- assaySetup: Homo sapiens, SK-OV-3; SKOV3 ovarian adenocarcinoma; 48 h with compound, further 48 h, MTT; Table 1
Where a name gives a salt, the structure may show the parent alone.
measuredAttribute: IC50

CC(=O)C1CC2=C(CO1)C(=O)c1ccccc1C2=O (stereo not shown): > 100 µM
COC1OC(C(=O)NCCCN(C)C)=CC2=C1C(=O)c1ccccc1C2=O (stereo not shown) [BCH2051, hydrochloride monohydrate]: 0.0073 to 0.029 µM
CC(=O)[C@@H]1CC2=C(C(=O)c3ccccc3C2=O)[C@@H](O[C@H]2C[C@H](NC(=O)C(F)(F)F)[C@H](O)[C@H](C)O2)O1: 0.005 to 0.0631 µM

Next item in the queue.
Asked: Quick check: IC50 of CCCC1OC(C(=O)NCCCN(C)C)=CC2=C1C(=O)c1ccccc1C2=O (stereo not shown) ?
Given back: 0.18 to 0.276 µM

====

- System: SKVLB (Ovarian; multidrug resistant)
- testMethodNotes: In vitro cytotoxicity, microculture tetrazolium (MTT) assay, SKVLB
- Type: cell-based, Human
- assaySetup: Homo sapiens; SKVLB multidrug resistant ovarian; 48 h with compound, further 48 h, MTT; Table 1
Structures can show the parent of a compound that is named as a salt.
measuredAttribute: IC50

Field: example entries. Status: answers known.
COC1OC(C(=O)NCCN2CCCC2)=CC2=C1C(=O)c1ccccc1C2=O (centres unmarked) [BCH2839, hydrochloride salt]: 224 to 460 nM
C[C@@H]1O[C@@H](O[C@H]2O[C@H](COc3ccccc3)CC3=C2C(=O)c2ccccc2C3=O)C[C@H](NC(=O)C(F)(F)F)[C@@H]1O [BCH2032]: 17600 to 28000 nM
CC(=O)[C@@H]1CC2=C(C(=O)c3ccccc3C2=O)[C@@H](O[C@H]2C[C@H](NC(=O)C(F)(F)F)[C@H](O)[C@H](C)O2)O1 [BCH1184]: 53.6 to 300 nM
CO[C@H]1C[C@H](O[C@@H]2O[C@@H](C(C)=O)CC3=C2C(=O)c2ccccc2C3=O)O[C@@H](C)[C@H]1OS(C)(=O)=O [BCH2072]: 315 to 991 nM
CC(=O)[C@@H]1CC2=C(C(=O)c3ccccc3C2=O)[C@@H](O[C@H]2C[C@H](NC(=O)C(F)(F)F)[C@H](O)[C@H](C)O2)S1 [BCH2037]: 3800 to 4730 nM

Asked: Can you look up IC50 on SKVLB (Ovarian; multidrug resistant) for CC(C)[C@H]1CC2=C(C(=O)c3ccccc3C2=O)[C@H](O[C@H]2C[C@H](NC(=O)C(F)(F)F)[C@H](O)[C@H](C)O2)O1 [BCH2052] ?
Given back: 20500 to 28200 nM

Asked: Next compound up: CC(=O)C1CC2=C(C(=O)c3ccccc3C2=O)C(OCC2CCCCN2)O1 (racemic) [BCH2069, hydrochloride]
Given back: 83 to 483 nM

Asked: Next compound up: COC1OC(C(=O)NCCCN(C)C)=CC2=C1C(=O)c1ccccc1C2=O (centres unmarked) [BCH2051, hydrochloride monohydrate]
Given back: 67.5 to 403 nM
